# key: entry, value: mass density
CONDITION_DESCRIPTION: 313.15 K; 101.33 kPa; Liquid; Vibrating tube method

SMILES_TEXT: CCCCCCCCCCCCn1cc[n+](C)c1.O=S(=O)([N-]S(=O)(=O)C(F)(F)F)C(F)(F)F
READING_UNIT: kg/m3
mass density: 1232.4
//
SMILES_TEXT: CCn1cc[n+](C)c1.O=S(=O)([N-]S(=O)(=O)C(F)(F)F)C(F)(F)F
READING_UNIT: kg/m3
mass density: 1505.3
//
SMILES_TEXT: CCCC[n+]1ccn(C)c1.O=S(=O)([N-]S(=O)(=O)C(F)(F)F)C(F)(F)F
READING_UNIT: kg/m3
mass density: 1423.4
//
SMILES_TEXT: CCCCCCCn1cc[n+](C)c1.O=S(=O)([N-]S(=O)(=O)C(F)(F)F)C(F)(F)F
READING_UNIT: kg/m3
mass density: 1331.5
//
SMILES_TEXT: CCCCCCCCn1cc[n+](C)c1.O=S(=O)([N-]S(=O)(=O)C(F)(F)F)C(F)(F)F
READING_UNIT: kg/m3
mass density: 1308.6

###

Entries annotated with measured mass density
CONDITION_DESCRIPTION: 323.15 K; 101.33 kPa; Liquid; Vibrating tube method
ASSAY_READOUT: mass density (kg/m3)

SMILES_TEXT: CCCn1cc[n+](C)c1.O=S(=O)([N-]S(=O)(=O)C(F)(F)F)C(F)(F)F
READING_UNIT: kg/m3
VALUE_OBSERVED: 1451.5
//
SMILES_TEXT: CCCC[n+]1ccn(C)c1.O=S(=O)([N-]S(=O)(=O)C(F)(F)F)C(F)(F)F
READING_UNIT: kg/m3
VALUE_OBSERVED: 1414.1
//
SMILES_TEXT: CCCCCCCCC[n+]1ccn(C)c1.O=S(=O)([N-]S(=O)(=O)C(F)(F)F)C(F)(F)F
READING_UNIT: kg/m3
VALUE_OBSERVED: 1276.8
//
SMILES_TEXT: CCCCCn1cc[n+](C)c1.O=S(=O)([N-]S(=O)(=O)C(F)(F)F)C(F)(F)F
READING_UNIT: kg/m3
VALUE_OBSERVED: 1380.3
//
SMILES_TEXT: CCCCCCCCCCn1cc[n+](C)c1.O=S(=O)([N-]S(=O)(=O)C(F)(F)F)C(F)(F)F
READING_UNIT: kg/m3
VALUE_OBSERVED: 1258.8

###

CONDITION_DESCRIPTION: 403.15 K; 101.33 kPa; Liquid; Vibrating tube method
Collected mass density values appear next to each entry.
ASSAY_READOUT: mass density (kg/m3)

SMILES_TEXT: CCCCCCCn1cc[n+](C)c1.O=S(=O)([N-]S(=O)(=O)C(F)(F)F)C(F)(F)F
READING_UNIT: kg/m3
VALUE_OBSERVED: 1252.6
//
SMILES_TEXT: CCCCCCCCCCCCCCn1cc[n+](C)c1.O=S(=O)([N-]S(=O)(=O)C(F)(F)F)C(F)(F)F
READING_UNIT: kg/m3
VALUE_OBSERVED: 1128.4
//
SMILES_TEXT: CCCCCCCCC[n+]1ccn(C)c1.O=S(=O)([N-]S(=O)(=O)C(F)(F)F)C(F)(F)F
READING_UNIT: kg/m3
VALUE_OBSERVED: 1208.8
//
SMILES_TEXT: CCn1cc[n+](C)c1.O=S(=O)([N-]S(=O)(=O)C(F)(F)F)C(F)(F)F
READING_UNIT: kg/m3
VALUE_OBSERVED: 1417.5
//
SMILES_TEXT: CCCCCn1cc[n+](C)c1.O=S(=O)([N-]S(=O)(=O)C(F)(F)F)C(F)(F)F
READING_UNIT: kg/m3
VALUE_OBSERVED: 1307.6
